Test system: methicillin and oxacillin-resistant Staphylococcus aureus subsp. aureus (MRSA strain ATCC 43300)
procedure-details: Antimicrobial assay, MIC, MRSA
Type: cell-based
reported-conditions: Staphylococcus aureus, read-out: MIC, MRSA S. aureus, serum concentration 10%
endpoint: MIC (µg/mL)
Answer with a number only, understood to be in µg/mL.

Example results:
CN[C@H](CC(C)C)C(=O)N[C@H]1C(=O)N[C@@H](CC(N)=O)C(=O)N[C@H]2C(=S)NC3C(=O)N[C@H](C(=O)N[C@H](C(=O)O)c4cc(O)cc(O)c4-c4cc3ccc4O)[C@H](O)c3ccc(c(Cl)c3)Oc3cc2cc(c3OC2OC(CO)C(O)[C@H](O)[C@@H]2O[C@H]2CC(C)(NCc3ccc(-c4ccc(Cl)cc4)cc3)[C@H](O)[C@H](C)O2)Oc2ccc(cc2Cl)[C@H]1O (stereo partly shown) | 2
CN[C@H](CC(C)C)C(=O)N[C@H]1C(=O)N[C@@H](CC(N)=O)C(=O)N[C@H]2C(=O)NC3C(=O)N[C@H](C(=O)N[C@H](C(=O)O)c4cc(O)cc(O)c4-c4cc3ccc4O)[C@H](O)c3ccc(c(Cl)c3)Oc3cc2cc(c3OC2OC(CO)C(O)[C@H](O)[C@@H]2O[C@H]2CC(C)(NCc3ccc(-c4ccc(Cl)cc4)cc3)[C@H](O)[C@H](C)O2)Oc2ccc(cc2Cl)[C@H]1O (stereo partly shown) [Compound 4, N-4-(4′-chlorobiphenyl)methyl vancomycin, reference compound] | 0.03

According to the records, this compound CN[C@H](CC(C)C)C(=O)N[C@H]1C(=O)N[C@@H](CC(N)=O)C(=O)N[C@H]2C(=N)NC3C(=O)N[C@H](C(=O)N[C@H](C(=O)O)c4cc(O)cc(O)c4-c4cc3ccc4O)[C@H](O)c3ccc(c(Cl)c3)Oc3cc2cc(c3OC2OC(CO)C(O)[C@H](O)[C@@H]2O[C@H]2CC(C)(NCc3ccc(-c4ccc(Cl)cc4)cc3)[C@H](O)[C@H](C)O2)Oc2ccc(cc2Cl)[C@H]1O (stereo partly shown) displays MIC of 0.06

----------
Test system: Enterococcus faecium (VanA VRE, ATCC BAA-2317)
procedure-details: Antimicrobial assay, MIC, VanA E. faecium
Assay type: cell-based
reported-conditions: Enterococcus faecium, read-out: MIC, VanA E. faecium
MIC values by entry
Answer with a number only, understood to be in µg/mL.

Example results:
CN[C@H](CC(C)C)C(=O)N[C@H]1C(=O)N[C@@H](CC(N)=O)C(=O)N[C@H]2C(=N)NC3C(=O)N[C@H](C(=O)N[C@H](CO)c4cc(O)cc(O)c4-c4cc3ccc4O)[C@H](O)c3ccc(c(Cl)c3)Oc3cc2cc(c3OC2OC(CO)C(O)[C@H](O)[C@@H]2O[C@H]2CC(C)(N)[C@H](O)[C@H](C)O2)Oc2ccc(cc2Cl)[C@H]1O (some centres unmarked) [Compound 25] | 2
CN[C@H](CC(C)C)C(=O)N[C@H]1C(=O)N[C@@H](CC(N)=O)C(=O)N[C@H]2C(=N)NC3C(=O)N[C@H](C(=O)N[C@H](C(=O)O)c4cc(O)cc(O)c4-c4cc3ccc4O)[C@H](O)c3ccc(c(Cl)c3)Oc3cc2cc(c3OC2OC(CO)C(O)[C@H](O)[C@@H]2O[C@H]2CC(C)(NCc3ccc(-c4ccc(Cl)cc4)cc3)[C@H](O)[C@H](C)O2)Oc2ccc(cc2Cl)[C@H]1O (some centres unmarked) [Compound 6] | 0.005
CN[C@H](CC(C)C)C(=O)N[C@H]1C(=O)N[C@@H](CC(N)=O)C(=O)N[C@H]2CNC3C(=O)N[C@H](C(=O)N[C@H](C(=O)O)c4cc(O)cc(O)c4-c4cc3ccc4O)[C@H](O)c3ccc(c(Cl)c3)Oc3cc2cc(c3OC2OC(CO)C(O)[C@H](O)[C@@H]2O[C@H]2CC(C)(N)[C@H](O)[C@H](C)O2)Oc2ccc(cc2Cl)[C@H]1O (some centres unmarked) [Compound 16, [Ψ[CH2NH]Tpg^4]vancomycin] | 31
CN[C@H](CC(C)C)C(=O)N[C@H]1C(=O)N[C@@H](CC(N)=O)C(=O)N[C@H]2C(=O)NC3C(=O)N[C@H](C(=O)N[C@H](C(=O)O)c4cc(O)cc(O)c4-c4cc3ccc4O)[C@H](O)c3ccc(c(Cl)c3)Oc3cc2cc(c3OC2OC(CO)C(O)[C@H](O)[C@@H]2O[C@H]2CC(C)(NCc3ccc(-c4ccc(Cl)cc4)cc3)[C@H](O)[C@H](C)O2)Oc2ccc(cc2Cl)[C@H]1O (some centres unmarked) [Compound 4, N-4-(4′-chlorobiphenyl)methyl vancomycin, reference compound] | 2.5
CN[C@H](CC(C)C)C(=O)N[C@H]1C(=O)N[C@@H](CC(N)=O)C(=O)N[C@H]2C(=N)NC3C(=O)N[C@H](C(=O)N[C@H](C(=O)O)c4cc(O)cc(O)c4-c4cc3ccc4O)[C@H](O)c3ccc(c(Cl)c3)Oc3cc2cc(c3OC2OC(CO)C(O)[C@H](O)[C@@H]2O[C@H]2CC(C)(N)[C@H](O)[C@H](C)O2)Oc2ccc(cc2Cl)[C@H]1O (some centres unmarked) [Compound 3, [Ψ[C(═NH)NH]Tpg^4]vancomycin] | 0.5

CN[C@H](CC(C)C)C(=O)N[C@H]1C(=O)N[C@@H](CC(N)=O)C(=O)N[C@H]2C(=O)NC3C(=O)N[C@H](C(=O)N[C@H](CO)c4cc(O)cc(O)c4-c4cc3ccc4O)[C@H](O)c3ccc(c(Cl)c3)Oc3cc2cc(c3OC2OC(CO)C(O)[C@H](O)[C@@H]2O[C@H]2CC(C)(NCc3ccc(-c4ccc(Cl)cc4)cc3)[C@H](O)[C@H](C)O2)Oc2ccc(cc2Cl)[C@H]1O (some centres unmarked) [Compound 26] on Enterococcus faecium (VanA VRE, ATCC BAA-2317) gives MIC = 4

CN[C@H](CC(C)C)C(=O)N[C@H]1C(=O)N[C@@H](CC(N)=O)C(=O)N[C@H]2C(=S)NC3C(=O)N[C@H](C(=O)N[C@H](C(=O)O)c4cc(O)cc(O)c4-c4cc3ccc4O)[C@H](O)c3ccc(c(Cl)c3)Oc3cc2cc(c3OC2OC(CO)C(O)[C@H](O)[C@@H]2O[C@H]2CC(C)(NCc3ccc(-c4ccc(Cl)cc4)cc3)[C@H](O)[C@H](C)O2)Oc2ccc(cc2Cl)[C@H]1O (some centres unmarked) [Compound 5] on Enterococcus faecium (VanA VRE, ATCC BAA-2317) gives MIC = 4

CN[C@H](CC(C)C)C(=O)N[C@H]1C(=O)N[C@@H](CC(N)=O)C(=O)N[C@H]2C(=S)NC3C(=O)N[C@H](C(=O)N[C@H](CO)c4cc(O)cc(O)c4-c4cc3ccc4O)[C@H](O)c3ccc(c(Cl)c3)Oc3cc2cc(c3OC2OC(CO)C(O)[C@H](O)[C@@H]2O[C@H]2CC(C)(NCc3ccc(-c4ccc(Cl)cc4)cc3)[C@H](O)[C@H](C)O2)Oc2ccc(cc2Cl)[C@H]1O (some centres unmarked) [Compound 27] on Enterococcus faecium (VanA VRE, ATCC BAA-2317) gives MIC = 4

CN[C@H](CC(C)C)C(=O)N[C@H]1C(=O)N[C@@H](CC(N)=O)C(=O)N[C@H]2C(=N)NC3C(=O)N[C@H](C(=O)N[C@H](CO)c4cc(O)cc(O)c4-c4cc3ccc4O)[C@H](O)c3ccc(c(Cl)c3)Oc3cc2cc(c3OC2OC(CO)C(O)[C@H](O)[C@@H]2O[C@H]2CC(C)(NCc3ccc(-c4ccc(Cl)cc4)cc3)[C@H](O)[C@H](C)O2)Oc2ccc(cc2Cl)[C@H]1O (some centres unmarked) [Compound 28] on Enterococcus faecium (VanA VRE, ATCC BAA-2317) gives MIC = 0.02
